SYSTEM_TESTED: PDGF-receptor beta enzyme comprising the tyrosine kinase domain (Homo sapiens, UniProt P09619)
Construct: from amino acid 545 to 1106 of GenBank Access NO: AAA36427
Sequence (P09619 545-1106): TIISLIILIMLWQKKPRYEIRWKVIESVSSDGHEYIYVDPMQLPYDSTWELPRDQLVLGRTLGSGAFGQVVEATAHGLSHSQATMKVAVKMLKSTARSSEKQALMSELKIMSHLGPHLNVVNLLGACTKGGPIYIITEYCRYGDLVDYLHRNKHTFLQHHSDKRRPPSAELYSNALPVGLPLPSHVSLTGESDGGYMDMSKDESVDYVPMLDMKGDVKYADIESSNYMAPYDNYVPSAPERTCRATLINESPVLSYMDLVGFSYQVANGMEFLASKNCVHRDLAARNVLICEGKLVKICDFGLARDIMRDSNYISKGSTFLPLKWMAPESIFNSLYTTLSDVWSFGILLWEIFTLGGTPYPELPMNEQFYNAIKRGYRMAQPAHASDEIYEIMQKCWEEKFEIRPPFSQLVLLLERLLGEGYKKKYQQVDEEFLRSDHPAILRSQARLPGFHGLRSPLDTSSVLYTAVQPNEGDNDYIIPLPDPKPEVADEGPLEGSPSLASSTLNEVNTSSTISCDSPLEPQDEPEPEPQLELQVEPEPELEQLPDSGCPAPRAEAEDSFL
MEASUREMENT_DESCRIPTION: Inhibition of PDGF-receptor kinase activity (cell-free, PLC1 peptide, 33P Flashplate)
Assay type: biochemical
CONDITION_PARAMETERS: PDGF-R kinase activity; compound at 10 uM; read-out: Percent Inhibition @ 10 uM
QUANTITY_MEASURED: inhibition at 10 µM (%)

Here is how some compounds turned out for inhibition at 10 µM.
In [3]: df
Out[3]:
                                   compound    quantity_measured  observed_measurement
0  COc1cc2c(cc1OC)-c1n[nH]c(Nc3ccc(N4CCN(C)CC4)cc3)c1C2  inhibition at 10 µM                    30
1  COc1cc2c(cc1OC)-c1n[nH]c(NCc3ccccc3Cl)c1C2  inhibition at 10 µM                    90
2  COc1cc2c(cc1OC)-c1n[nH]c(Nc3ccc(Cl)c(Cl)c3)c1C2  inhibition at 10 µM                    65

(A) C=C(C)C(=O)OCCNC(=O)n1nc(Nc2cccc(F)c2)c2c1-c1cc(OC)c(OC)cc1C2
(B) CCC1c2cc(OC)c(OC)cc2-c2n[nH]c(Nc3cccc(F)c3)c21 (stereo not drawn)
Ask: Hey, between A and B which has a smaller measured inhibition at 10 µM? # answer = label of selected item
Result: A

====

SYSTEM_TESTED: PDGF-receptor beta enzyme comprising the tyrosine kinase domain (Homo sapiens, UniProt P09619)
Construct: from amino acid 545 to 1106 of GenBank Access NO: AAA36427
MEASUREMENT_DESCRIPTION: Inhibition of PDGF-receptor kinase activity (cell-free, PLC1 peptide, 33P Flashplate)
Type: biochemical
CONDITION_PARAMETERS: PDGF-R kinase activity; compound at 10 uM; read-out: Percent Inhibition @ 10 uM
QUANTITY_MEASURED: inhibition at 10 µM (%)

Look over these answered cases.
In [3]: df
Out[3]:
                                   compound    quantity_measured  result_unit  observed_measurement
0  CCC1c2cc(OC)c(OC)cc2-c2c1c(Nc1cccc(Br)c1)nn2C(=O)COCc1ccccc1 (stereo not drawn)  inhibition at 10 µM            %                  97.5
1  COc1cccc2c1Cc1c-2n[nH]c1Nc1cccc(S(N)(=O)=O)c1  inhibition at 10 µM            %                  82.5
2  COc1cc2c(cc1OCCCN(C)C)Cc1c-2n[nH]c1Nc1ccc(F)c(Cl)c1  inhibition at 10 µM            %                    87
3  COc1cc2c(cc1OC)-c1n[nH]c(Nc3cccc(C(=O)NCCCN4CCCC4)c3)c1C2  inhibition at 10 µM            %                    92
4  COc1cc2c(cc1OC)-c1n[nH]c(Nc3cccnc3Cl)c1C2  inhibition at 10 µM            %                    99

(P) COc1cccc([C@H](C)Nc2[nH]nc3c2Cc2cc(OC)c(OC)cc2-3)c1 (single isomer, unassigned)
(Q) COc1ccc(CNc2[nH]nc3c2Cc2cc(OC)c(OC)cc2-3)cc1
(R) Cc1cccc(Nc2[nH]nc3c2Cc2cc(Cl)ccc2-3)c1
(S) COc1cc2c(cc1OC)-c1n[nH]c(NCCN3CCOCC3)c1C2
Ask: Thanks in advance: please rank these 4 entries by inhibition at 10 µM, highest to lowest. Respond with an ordered listing of the labels, as requested.
Result: P, Q, S, R

(1) COc1cc2c(cc1F)Cc1c-2n[nH]c1Nc1cccc(F)c1
(2) COCCCOc1ccc2c(c1)Cc1c-2n[nH]c1Nc1ccc(OC)cc1
Ask: Of 1 versus 2 , which is the one with smaller reported inhibition at 10 µM? Kindly give the label for the entry you pick.
Result: 2
(2: 67%, 1: 98.5%)
